METHOD_SUMMARY: Aqueous solubility
Assay type: physicochemical
MEASUREMENT_CONDITIONS: thermodynamic from solid; NEU; read-out: Aqueous Solubility (uM) (NEU)
ASSAY_READOUT: solubility (µM)

Recorded results for 3 compounds are shown here.
Briefly, solubility measured for COc1ccc(-c2nc3ccccn3c2Nc2ccc(F)cc2)nc1 [OSA_001022] : 3

For record COc1cccc(-c2nc3ccccn3c2N(CC(C)C)c2ccc(F)cc2)n1 [OSA_001025] the listed solubility is 0.7

Sample CC(=O)N(c1ccc(F)cc1)c1c(-c2ccccn2)nc2ccccn12 [OSA_001021] ; solubility observed: 10

[P] CS(=O)(=O)c1ccc2nc(-c3ccccn3)c(Nc3ccc(F)cc3)n2c1 [OSA_001020]
[Q] CC(C)CN(c1ccc(F)cc1)c1c(-c2ccccn2)nc2ccc(F)cn12 [OSA_001024]
[R] CC(C)CN(c1ccc(F)cc1)c1c(-c2ccccn2)nc2cc(F)ccn12 [OSA_001023]
Ask: Sort (3 compounds) by solubility: min first. Arrange the labels as the request states and list them.
Reply: P, R, Q
(P: 5 µM, R: 11 µM, Q: 17 µM)
